Biological target: recombinant soluble trimeric 2009 H1 HA (A/California/04/2009, wild type) (Influenza A virus A/California/04/2009 (H1N1))
Test: ELISA, supernate
Known OD of a selection of binders
MEASURE_NAME: OD

>>> experimental_result("mAb 3E22 (antibody, V domains shown) VH: EVQLVESGAEVKKPGASVKVSCKASGYTFSRYYIHWVRQAPGQELEWMGWINPDSGDTNYAQKFRGRVTMARDTSISTVYMELNSLRYDDTAVYFCARIIWSSSGMDVWGQGTTVTVS VL: QSALTQPASVSGSPGQSITISCTGTSSDVGSYNLVSWYQQHPGKAPKLMIYEVSKRPSGVSNRFSGSKSGNTASLTISGLQAEDEADYYCHLYVGSSNWVFGGGTKLAVLG")
"2.38 OD"
>>> experimental_result("mAb 6J24 (antibody, V domains shown) VH: EVQLVESGGGLVQPGRSLRLSCVGSGFNFDGYAMQWVRQVPGKGLEWVSGISWHSDSTGYADSVRGRFTISRDNAKNSLYLQMDSLRPEDTAFYYCGKSIGHVGGSYRHPIDYWGQGTLVTVS VL: DIQLTQSPSSLSASVGDRVTITCRASQGITDYLAWYQQKPGTIPKLLIYAASTLQSGVPSRFSGGGYGTDFTLTISSLQPEDVATYYCQKYNSAPLTFGGGTKVEIKR")
"0.981 OD"
>>> experimental_result("mAb 25F7 (antibody, V domains shown) VH: EVQLLESGGGLVQPGGSLRLSCAASGFAFSSYGMSWVRQAPGKGLEWVSAFSGSGTSTYYADSVKGRFTISRDKSKNTLYLQMNSLRAEDTAIYYCAKPPGPYIVVAGLFENWGRGTLVTVS VL: QSVLTQPPSVSGAPGQRVTISCTGTSSNIGAGYEVHWYQQLPGTAPKLIINANTNRPSGVPDRFSGSQSGTSASLAITGLRAEDEADYYCQSFDSSLSGWLFGGGTKLTVLG")
"0.078 OD"

Reference for the values: patent US20130289246A1
